Molecular target: human recombinant mGluR5 (Homo sapiens)
Construct: cultured with tetracycline, hygromycin and geneticin; tetracycline withdrawn 3-7 days before the assay
Assay: positive modulation of mGluR5, calcium based FLIPR assay in HEK 293 cells
Details: HEK 293 cell line expressing human recombinant mGluR5; peak height of Ca release fluorescence signal after glutamate at approximately 5% basal stimulation; nonlinear regression
Measure name: EC50 (µM)

[I] Cc1nc(-c2cc(-c3ccccc3)n(CC(=O)N3CCN(c4ccccn4)CC3)n2)ccc1F [Example 7.01.155]
[II] O=C(Cn1nc(-c2ccccc2)cc1-c1ccccc1)N1CCN(c2nccc(C(F)(F)F)n2)CC1 [Example 7.02.12]
In: In the pair I and II , the larger recorded EC50 belongs to which? Select an item and report its label.
Out: II

[P] CCCc1cc(-c2ccc(F)c(C)n2)nn1CC(=O)N1CCN(c2ncccn2)CC1 [Example 7.01.185]
[Q] COc1ccnc(N2CCN(C(=O)Cn3nc(-c4ccc(F)c(C)c4)cc3C)CC2)c1 [Example 7.02.22]
In: In the pair P and Q , the larger recorded EC50 belongs to which? Select an item and report its label.
Out: P

----------
Target: human recombinant mGluR5 (Homo sapiens)
Construct: cultured with tetracycline, hygromycin and geneticin; tetracycline withdrawn 3-7 days before the assay
Assay: positive modulation of mGluR5, calcium based FLIPR assay in HEK 293 cells
Conditions: HEK 293 cell line expressing human recombinant mGluR5; peak height of Ca release fluorescence signal after glutamate at approximately 5% basal stimulation; nonlinear regression
pEC50: −log10 of the molar value.
Measure name: pEC50

Known pEC50 results, listed for orientation:
[
  {
    "Query smiles": "COc1cc(N2CCN(C(=O)Cn3nc(-c4ccc(F)c(C)c4)cc3C(C)C)CC2)ncn1",
    "Measure name": "pEC50",
    "Reported": 7.19
  },
  {
    "Query smiles": "COc1cc(N2CCN(C(=O)Cn3nc(-c4ccc(F)c(OC)c4)cc3C(C)C)CC2)ncn1",
    "Measure name": "pEC50",
    "Reported": 6.35
  },
  {
    "Query smiles": "CCc1cccc(-c2cc(CC)n(CC(=O)N3CCN(c4ccccn4)CC3)n2)c1",
    "Measure name": "pEC50",
    "Reported": 6.69
  },
  {
    "Query smiles": "COc1ccc(-c2cc(C(C)C)n(CC(=O)N3CCN(c4cc(C)ccn4)CC3)n2)cc1C",
    "Measure name": "pEC50",
    "Reported": 6.37
  },
  {
    "Query smiles": "COc1cnc(N2CCN(C(=O)Cn3nc(-c4ccc(C)c(C)c4)cc3-c3ccccc3)CC2)nc1",
    "Measure name": "pEC50",
    "Reported": 7.62
  }
]

[P] O=C(Cn1nc(-c2ccccc2)cc1-c1ccccc1)N1CCN(c2ccncn2)CC1
[Q] CCc1cc(-c2cccc(C)c2)nn1CC(=O)N1CCN(c2cc(OC)ncn2)CC1
[R] COc1cc(N2CCN(C(=O)Cn3nc(-c4ccc(C)cn4)cc3-c3ccccc3)CC2)ncn1
[S] Cc1ccc(-c2cc(-c3ccccc3)n(CC(=O)N3CCN(c4ncccn4)CC3)n2)nc1C
In: Place the items in sequence of falling pEC50. # the answer lists labels in the order requested
Out: S, R, Q, P
(S: 8.10, R: 7.70, Q: 6.74, P: 6.46)

----------
Biological target: human recombinant mGluR5 (Homo sapiens, UniProt P41594)
Construct: cultured with tetracycline, hygromycin and geneticin; tetracycline withdrawn 3-7 days before the assay
Sequence (P41594 21-1212): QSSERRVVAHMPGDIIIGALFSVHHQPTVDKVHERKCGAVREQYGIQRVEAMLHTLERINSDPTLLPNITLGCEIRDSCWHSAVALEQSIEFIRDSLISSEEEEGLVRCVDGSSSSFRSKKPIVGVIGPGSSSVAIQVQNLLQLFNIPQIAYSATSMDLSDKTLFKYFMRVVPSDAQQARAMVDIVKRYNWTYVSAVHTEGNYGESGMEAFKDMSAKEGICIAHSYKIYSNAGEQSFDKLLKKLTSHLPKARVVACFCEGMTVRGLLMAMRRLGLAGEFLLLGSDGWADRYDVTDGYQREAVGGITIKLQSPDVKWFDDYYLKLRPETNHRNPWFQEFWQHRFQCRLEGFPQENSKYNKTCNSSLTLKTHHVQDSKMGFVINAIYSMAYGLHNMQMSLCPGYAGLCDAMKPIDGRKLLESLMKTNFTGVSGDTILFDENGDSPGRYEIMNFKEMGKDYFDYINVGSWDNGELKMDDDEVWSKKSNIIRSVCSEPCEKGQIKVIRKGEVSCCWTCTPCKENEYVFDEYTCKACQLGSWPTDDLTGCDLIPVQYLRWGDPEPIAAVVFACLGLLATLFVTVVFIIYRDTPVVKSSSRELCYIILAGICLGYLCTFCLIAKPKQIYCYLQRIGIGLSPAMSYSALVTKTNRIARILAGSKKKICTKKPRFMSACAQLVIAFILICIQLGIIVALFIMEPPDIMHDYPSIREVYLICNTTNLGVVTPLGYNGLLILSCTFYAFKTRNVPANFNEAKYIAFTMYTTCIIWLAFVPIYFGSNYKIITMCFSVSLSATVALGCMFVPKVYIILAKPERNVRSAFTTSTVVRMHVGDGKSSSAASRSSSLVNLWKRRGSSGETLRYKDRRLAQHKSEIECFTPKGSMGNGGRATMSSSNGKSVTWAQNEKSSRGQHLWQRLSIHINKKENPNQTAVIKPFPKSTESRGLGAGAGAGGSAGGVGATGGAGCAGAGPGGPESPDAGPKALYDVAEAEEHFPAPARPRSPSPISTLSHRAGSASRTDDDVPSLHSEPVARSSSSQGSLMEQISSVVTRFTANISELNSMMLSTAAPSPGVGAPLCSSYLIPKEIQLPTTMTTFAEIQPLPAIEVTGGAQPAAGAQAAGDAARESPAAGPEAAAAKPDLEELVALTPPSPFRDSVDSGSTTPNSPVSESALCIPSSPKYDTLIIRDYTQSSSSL
Assay: positive modulation of mGluR5, calcium based FLIPR assay in HEK 293 cells
Conditions: HEK 293 cell line expressing human recombinant mGluR5; peak height of Ca release fluorescence signal after glutamate at approximately 5% basal stimulation; nonlinear regression
Measure name: EC50 (nM)

[
  {
    "Molecule": "COCc1cc(-c2ccc(F)c(C)c2)nn1CC(=O)N1CCN(c2ccccn2)CC1 [Example 7.02.16]",
    "Unit of measurement": "nM",
    "EC50": 237
  }
]

[a] CCc1cc(-c2cccc(C)c2)nn1CC(=O)N1CCN(c2cc(OC)ccn2)CC1 [Example 7.01.96]
[b] COc1cccc(-c2cc(C3CCCCC3)n(CC(=O)N3CCN(c4ccccn4)CC3)n2)c1 [Example 7.01.18]
[c] O=C(Cn1nc(C2CCCCC2)cc1-c1ccc(F)cc1)N1CCN(c2ncccn2)CC1 [Example 7.04.02]
In: Place the items in sequence of falling EC50. # the answer lists labels in the order requested
Out: b, a, c
(b: 285 nM, a: 168 nM, c: 81 nM)

----------
Target: human recombinant mGluR5 (Homo sapiens, UniProt P41594)
Construct: cultured with tetracycline, hygromycin and geneticin; tetracycline withdrawn 3-7 days before the assay
Experiment: positive modulation of mGluR5, calcium based FLIPR assay in HEK 293 cells
Conditions: HEK 293 cell line expressing human recombinant mGluR5; peak height of Ca release fluorescence signal after glutamate at approximately 5% basal stimulation; nonlinear regression
Measure name: EC50 (nM)

Known EC50 results, listed for orientation:
[
  {
    "Query smiles": "COc1cc(N2CCN(C(=O)Cn3nc(-c4ccc(F)c(C)c4)cc3CC(C)C)CC2)ncn1",
    "EC50 (nM)": 34
  },
  {
    "Query smiles": "COc1cnnc(N2CCN(C(=O)Cn3nc(-c4ccc(F)c(C)c4)cc3C(C)C)CC2)c1",
    "EC50 (nM)": 987
  },
  {
    "Query smiles": "CCc1cc(-c2cccc(C#N)c2)nn1CC(=O)N1CCN(c2ncc(OC)cn2)CC1",
    "EC50 (nM)": 343
  },
  {
    "Query smiles": "Cc1cc(-c2cc(C)n(CC(=O)N3CCN(c4ncnc5[nH]cnc45)CC3)n2)ccc1F",
    "EC50 (nM)": 92
  },
  {
    "Query smiles": "CCc1cc(-c2ccc(F)c(C)c2)nn1CC(=O)N1CCN(c2ncccn2)CC1",
    "EC50 (nM)": 41
  },
  {
    "Query smiles": "CCc1cc(-c2ccc(F)c(C)c2)nn1CC(=O)N1CCN(c2cc(OC)ccn2)CC1",
    "EC50 (nM)": 74
  },
  {
    "Query smiles": "COc1ccc(-c2cc(C(C)C)n(CC(=O)N3CCN(c4ncccn4)CC3)n2)cc1",
    "EC50 (nM)": 86
  },
  {
    "Query smiles": "Cc1cc(-c2cc(C)n(CC(=O)N3CCN(c4ccccn4)CC3)n2)ccc1F",
    "EC50 (nM)": 77
  }
]

[1] COc1ccnc(N2CCN(C(=O)Cn3nc(-c4ccc(OC)c(C)c4)cc3C(C)C)CC2)c1
[2] O=C(Cn1nc(-c2ccccc2)cc1-c1ccccc1)N1CCN(c2ncc(Br)cn2)CC1
In: Select one. Lower EC50: 1 or 2 Select an item and report its label.
Out: 2

[a] N#Cc1cccc(-c2cc(-c3ccccc3)n(CC(=O)N3CCN(c4ncccn4)CC3)n2)c1
[b] O=C(Cn1nc(-c2ccc(OC(F)F)cn2)cc1-c1ccccc1)N1CCN(c2ncccn2)CC1
In: In the pair a and b , the larger recorded EC50 belongs to which? Select an item and report its label.
Out: b

----------
Molecular target: human recombinant mGluR5 (Homo sapiens)
Construct: cultured with tetracycline, hygromycin and geneticin; tetracycline withdrawn 3-7 days before the assay
Assay: positive modulation of mGluR5, calcium based FLIPR assay in HEK 293 cells
Details: HEK 293 cell line expressing human recombinant mGluR5; peak height of Ca release fluorescence signal after glutamate at approximately 5% basal stimulation; nonlinear regression
Protocol: The positive modulation of mGluR5 is measured in a HEK 293 cell line expressing human recombinant mGluR5 and is detected with calcium based FLIPR assay. […] 20 μl of each compound solution are then transferred to the assay plate and the Ca2+ kinetic is measured to determine any intrinsic compound activity. […] The peak height of the Ca release related fluorescence signal (9-66) is used for the EC50. The EC50 of the modulation is calculated over a nonlinear regression with GraphPad Prism (Table 1).
pEC50: −log10 of the molar value.
Measure name: pEC50

Known pEC50 results, listed for orientation:
[
  {
    "Compound": "COc1ccnc(N2CCN(C(=O)Cn3nc(-c4ccc(F)cc4)cc3C(C)C)CC2)c1 [Example 7.01.85]",
    "Target": "human recombinant mGluR5 (Homo sapiens)",
    "pEC50": 6.43
  },
  {
    "Compound": "COc1cc(N2CCN(C(=O)Cn3nc(-c4cccc(C)c4)cc3-c3ccccc3)CC2)ncn1 [Example 7.01.173]",
    "Target": "human recombinant mGluR5 (Homo sapiens)",
    "pEC50": 7.96
  },
  {
    "Compound": "O=C(Cn1nc(-c2ccc(F)cn2)cc1-c1ccc(F)cc1)N1CCN(c2cccnn2)CC1 [Example 7.01.64]",
    "Target": "human recombinant mGluR5 (Homo sapiens)",
    "pEC50": 6.17
  },
  {
    "Compound": "O=C(Cn1nc(-c2ccccc2)cc1-c1ccccc1)N1CCN(c2nccc3ccccc23)CC1 [Example 7.01.07]",
    "Target": "human recombinant mGluR5 (Homo sapiens)",
    "pEC50": 6.21
  },
  {
    "Compound": "COCCCc1cc(-c2ccc(F)c(C)c2)nn1CC(=O)N1CCN(c2ccccn2)CC1 [Example 7.01.108]",
    "Target": "human recombinant mGluR5 (Homo sapiens)",
    "pEC50": 5.90
  },
  {
    "Compound": "CCc1cc(-c2ccc(C)c(F)c2)nn1CC(=O)N1CCN(c2ncccn2)CC1 [Example 7.01.181]",
    "Target": "human recombinant mGluR5 (Homo sapiens)",
    "pEC50": 6.89
  },
  {
    "Compound": "COCCCc1cc(-c2ccc(F)c(C)c2)nn1CC(=O)N1CCN(c2cc(OC)ccn2)CC1 [Example 7.01.109]",
    "Target": "human recombinant mGluR5 (Homo sapiens)",
    "pEC50": 6.85
  },
  {
    "Compound": "CCOc1ccccc1N1CCN(C(=O)Cn2nc(-c3ccccc3)cc2-c2ccccc2)CC1 [Example 7.01.11]",
    "Target": "human recombinant mGluR5 (Homo sapiens)",
    "pEC50": 5.85
  }
]

[I] COc1cc(-c2cc(C(C)C)n(CC(=O)N3CCN(c4ccccn4)CC3)n2)ccc1F [Example 7.01.49]
[II] COc1cc(N2CCN(C(=O)Cn3nc(-c4ccc(F)c(C)c4)cc3C)CC2)ncn1 [Example 7.02.23]
[III] N#Cc1cccc(-c2cc(-c3ccccc3)n(CC(=O)N3CCN(c4ccccn4)CC3)n2)c1 [Example 7.01.168]
[IV] COc1ccnc(N2CCN(C(=O)Cn3nc(-c4ccc(F)c(C)c4)cc3C(C)C)CC2)c1 [Example 7.01.25]
In: Arrange the 4 entries by pEC50 so the values rise. # the answer lists labels in the order requested
Out: I, IV, II, III

[I] CCc1cccc(-c2cc(CC)n(CC(=O)N3CCN(c4ncccn4)CC3)n2)c1 [Example 7.01.131]
[II] CCc1cc(-c2cccc(Cl)c2)nn1CC(=O)N1CCN(c2ncccn2)CC1 [Example 7.01.113]
[III] O=C(Cn1nc(-c2ccc(C(F)F)cc2)cc1-c1ccccc1)N1CCN(c2ncccn2)CC1 [Example 7.01.191]
In: Place the items in sequence of falling pEC50. # the answer lists labels in the order requested
Out: III, I, II
(III: 8.15, I: 7.23, II: 7.03)

Cited source: patent US8822464B2
